- Test system: Human immunodeficiency virus 2
- protocolNotes: Inhibition of human immunodeficiency virus type 2 (HIV-2) induced cytopathogenicity in CEM cells
- Assay type: functional, organism-based
- measurementSetup: Human immunodeficiency virus 2, CCRF-CEM
measurementKind: EC50

Past entries and their recorded results:
# compound, targetOrSystem, result
records = [
    ("Nc1nc(O)c2c(ncn2CCOCP(=O)(O)O)n1", "Human immunodeficiency virus 2", "> 100 µg/mL"),
    ("NC1=NC2N=CC=NC2C(=O)N1CCOCP(=O)(O)O (stereo unspecified)", "Human immunodeficiency virus 2", "> 100 µg/mL"),
    ("CC(C)CCCCCOP(=O)(COCCn1cnc2c(N)ncnc21)OCCCCCC(C)C", "Human immunodeficiency virus 2", "> 4 µg/mL"),
    ("CCOP(=O)(O)COCCn1cnc2c(N)ncnc21", "Human immunodeficiency virus 2", "> 100 µg/mL"),
    ("Nc1nc2c(ncn2CCOCP(=O)(O)O)c(=O)[nH]1", "Human immunodeficiency virus 2", "0.03 µg/mL"),
]

Note: attention shifts to another entry.
Exercise: # assay system Human immunodeficiency virus 2: give EC50 of CC(C)CCCCCOP(=O)(COCCn1cnc2c(O)nc(N)nc21)OCCCCCC(C)C
Key: > 4 µg/mL

* * *

Examples of molecules with documented EC50 follow.
- System: Human alphaherpesvirus 2
- protocolNotes: Inhibitory activity against herpes simplex virus type 2 (HSV-2) G strain
- Type: functional, organism-based

Past entries and their recorded results:
# structureString, EC50
data = [
    ("CC(C)OP(=O)(COCCn1c(Br)nc2c(O)nc(N)nc21)OC(C)C", "> 400 µg/mL"),
    ("CC(C)OP(=O)(COCCn1cnc2c(N)ncnc21)OC(C)C", "> 400 µg/mL"),
    ("CC(C)OP(=O)(COCCn1c(Br)nc2c(N)nc(N)nc21)OC(C)C", "> 400 µg/mL"),
    ("CC(C)CCCCCOP(=O)(COCCn1cnc2c(O)nc(N)nc21)OCCCCCC(C)C", "> 80 µg/mL"),
    ("CC(C)CCCCCOP(=O)(COCCn1cnc2c(N)nc(N)nc21)OCCCCCC(C)C", "> 16 µg/mL"),
]

Exercise: # assay system Human alphaherpesvirus 2: give EC50 of Nc1cc2c(ncn2CCOCP(=O)(O)O)c(O)n1
Key: 12 µg/mL

* * *

- Tested on: E6SM
- protocolNotes: Inhibitory activity against herpes simplex virus type 2 (HSV-2) Lyons strain.
- Type: functional, cell-based, Homo sapiens
measurementKind: EC50

Past entries and their recorded results:
# structureString, EC50
measured = [
    ("Cc1ncnc2c1ncn2CCOCP(=O)(O)O", "Not Active"),
    ("CC(C)OP(=O)(COCCn1cnc2c(Cl)nc(N)nc21)OC(C)C", "Not Active"),
    ("CCOP(=O)(COCCn1cnc2c(N)nc(N)nc21)OCC", "Not Active"),
    ("Nc1nc(=O)ccn1CCOCP(=O)(O)O", "Not Active"),
    ("Nc1nccc2c1ncn2CCOCP(=O)(O)O", "Not Active"),
]

Exercise: Entry Nc1cnn(CCOCP(=O)(O)O)c(=O)n1 needs its EC50 filled in; supply it.
Key: Not Active

Exercise: Entry CC(C)OP(=O)(COCCn1cnc2c(N)nc(Cl)nc21)OC(C)C needs its EC50 filled in; supply it.
Key: Not Active

Exercise: Entry Cc1cn(CCOCP(=O)(O)O)c(=O)nc1N needs its EC50 filled in; supply it.
Key: Not Active

Exercise: Entry CC(C)OP(=O)(COCCn1ccc(O)cc1=O)OC(C)C needs its EC50 filled in; supply it.
Key: Not Active

Exercise: Entry Nc1ncnc2c1nc(Br)n2CCOCP(=O)(O)O needs its EC50 filled in; supply it.
Key: Not Active

Exercise: Entry CSc1ncnc2c1ncn2CCOCP(=O)(O)O needs its EC50 filled in; supply it.
Key: Not Active

Exercise: Entry CC(C)OP(=O)(COCCn1ncc(N)nc1=O)OC(C)C needs its EC50 filled in; supply it.
Key: Not Active

Exercise: Entry Nc1nc(Cl)nc2c1ncn2CCOCP(=O)(O)O needs its EC50 filled in; supply it.
Key: Not Active

Exercise: Entry Nc1ccn(CCOCP(=O)(O)O)c(=O)n1 needs its EC50 filled in; supply it.
Key: Not Active

Exercise: Entry Nc1ccn(CCOCP(=O)(O)O)c(=O)c1 needs its EC50 filled in; supply it.
Key: Not Active
